# Tested on: A498 renal
# test: NCI-60 one-dose screen, 48 h (100 = growth as untreated, 0 = no growth, -100 = all killed)
# details: 10 µM
This is part of a sample that, as a whole, favours compounds with a hit. Of some 83,000 tested, about 20% had one in any assay.
measurement-name: growth (%)
Numeric answer only, unit % assumed.

Req: Record lookup: for A498 renal, what growth belongs to COc1cc(-c2cc(C(=O)N3CCN(C(=O)c4ccccc4NCc4cccs4)CC3)nc3cc(-c4ccccc4)nn23)cc(OC)c1OC ?
Resp: 74.2

Req: # query: growth | item Nc1ccn(C2CC(O)C(CO)O2)c(=O)n1 (stereo not drawn) | system: A498 renal
Resp: 124

Req: Find growth (A498 renal) for the entry COc1ccc(C2=NN(C(=O)c3ccc(S(C)(=O)=O)cc3)C(c3ccc(OC)c(OC)c3)C2)c(OC)c1 (stereo not drawn)
Resp: 98.5
